Where do the numbers come from? From the RNAGym collection of RNA variant scans (doi:10.1021/acssynbio.7b00057).

Known aptazyme ON/OFF ratio of a selection of variants
B1: Pistol ribozyme (parent)
chain: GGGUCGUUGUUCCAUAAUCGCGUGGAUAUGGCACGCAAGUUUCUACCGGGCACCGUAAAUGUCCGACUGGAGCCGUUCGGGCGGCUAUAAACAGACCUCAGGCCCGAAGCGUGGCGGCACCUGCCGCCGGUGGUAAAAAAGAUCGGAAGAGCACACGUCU

# Variants of: B1
# protocol.description: aptazyme ON/OFF ratio, guanine; higher = stronger switching; co-transcriptional cleavage with and without guanine

U7G U8A G9A U10G C13U    1.35
U7G U8C G9C U10A U11G C12U C13U    1.17
U7G U8A G9A U10A U11C C13A    1.1

input: Which value of aptazyme ON/OFF ratio has been reported for U7G G9A U11C C13U in the records?
output: 1.14

input: Give the measured aptazyme ON/OFF ratio of G9C U11A C13G .
output: 1.04
